tested on: HCT-116; assay: Cytotoxicity against human HCT116 cells after 72 hrs by calcein-AM assay; type: functional, cell-based; conditions: HCT-116, 72 h
IC50 listing for selected compounds.
Enter your answer as a number in µM; do not include the unit.

> print(dat)
                           structure.string  value.kind  test.value
1  O=C(N[C@H](Cc1ccccc1)C(=O)Nc1ccc(Cl)cc1)c1cc(Cl)ccc1O        IC50         1.7
2  CC(C)(C)[C@H](NC(=O)c1cc(Cl)ccc1O)C(=O)Nc1cccc(C(F)(F)F)c1        IC50         5.4
3  O=C(N[C@@H](CC1CCCCC1)C(=O)Nc1ccc(Br)cc1)c1cc(Cl)ccc1O        IC50           2
4  O=C(N[C@@H](CC1CCCCC1)C(=O)Nc1cccc(C(F)(F)F)c1)c1cc(Cl)ccc1O        IC50         1.5

Moving on to the next compound.
In one line, give reported IC50 of the entry CC(C)[C@H](NC(=O)c1cc(Cl)ccc1O)C(=O)Nc1ccc(C(F)(F)F)cc1 . 5.9

----------
IC50 listing for selected molecules.
test system: HOS; assay: Cytotoxicity against human HOS cells after 72 hrs by calcein-AM assay; type: functional, cell-based
Enter your answer as a number in µM; do not include the unit.

Reference set (4 entries):
> print(dat)
                           structure.string  tested.on  value.kind  reading.unit  test.value
1  O=C(N[C@@H](CC1CCCCC1)C(=O)Nc1cccc(C(F)(F)F)c1)c1cc(Cl)ccc1O        HOS        IC50            µM         3.4
2  CC(C)[C@H](NC(=O)c1cc(Cl)ccc1O)C(=O)Nc1ccc(C(F)(F)F)cc1        HOS        IC50            µM           7
3  CC(C)(C)[C@H](NC(=O)c1cc(Cl)ccc1O)C(=O)Nc1cccc(C(F)(F)F)c1        HOS        IC50            µM         7.8
4  O=C(N[C@@H](CC1CCCCC1)C(=O)Nc1ccc(Br)cc1)c1cc(Cl)ccc1O        HOS        IC50            µM         3.3

Moving on to the next molecule.
Determine reported IC50 for O=C(N[C@H](Cc1ccccc1)C(=O)Nc1ccc(Cl)cc1)c1cc(Cl)ccc1O ; test system: HOS. 2.5

All figures here come from ChEMBL document CHEMBL2424632.
